Here, each record is paired with measured viability decrease (inhibition) data.
procedure-details: reduced SW480 viability measured with CellTiter-Glo, NPC library, primary (AID 1117343)
condition-description: CellTiter-Glo luminescence; at 20 µM (top of the series)
recorded-metric: viability decrease (inhibition) (%)

compound=Cc1[nH]c(C)c(Cl)c(=O)c1Cl recorded_metric="viability decrease (inhibition)" result_number=29
compound=COc1ccc2cc3[n+](cc2c1OC)CCc1cc2c(cc1-3)OCO2 recorded_metric="viability decrease (inhibition)" result_number=33.2
compound=CN1CCN(C2=Nc3ccccc3Oc3ccc(Cl)cc32)CC1 recorded_metric="viability decrease (inhibition)" result_number=107
compound=CNC[C@H](O)[C@@H](O)[C@H](O)[C@H](O)CO recorded_metric="viability decrease (inhibition)" result_number=0.6
compound=Oc1ccc(Cl)c2cccnc12 recorded_metric="viability decrease (inhibition)" result_number=84.4
compound=CCn1cc(C(=O)O)c(=O)c2cnc(N3CCNCC3)nc21 recorded_metric="viability decrease (inhibition)" result_number=-4.5
compound=O=C1C(O)=C(O)C(=O)C(O)=C1O recorded_metric="viability decrease (inhibition)" result_number=27.9
compound=O=C(O)P(=O)(O)O recorded_metric="viability decrease (inhibition)" result_number=2.3
compound=CCOC(=O)O[C@]1(C(=O)OCCl)CC[C@H]2[C@@H]3CCC4=CC(=O)C=C[C@]4(C)[C@H]3[C@@H](O)C[C@@]21C recorded_metric="viability decrease (inhibition)" result_number=0.5
compound=Nc1nc(F)nc2c1ncn2[C@@H]1O[C@H](CO)[C@@H](O)[C@@H]1O recorded_metric="viability decrease (inhibition)" result_number=17.2
compound=O=C1CCc2cc(OCCCCc3nnnn3C3CCCCC3)ccc2N1 recorded_metric="viability decrease (inhibition)" result_number=36.4
compound=CCN(CC)C(=O)c1cccc(C)c1 recorded_metric="viability decrease (inhibition)" result_number=-14.3
compound=CN(C/C=C/C#CC(C)(C)C)Cc1cccc2ccccc12 recorded_metric="viability decrease (inhibition)" result_number=121
compound=Cc1cc(NC(=O)C2=C(O)c3ccccc3S(=O)(=O)N2C)no1 recorded_metric="viability decrease (inhibition)" result_number=-6
compound=CCOC(=O)c1ncn2c1CN(C)C(=O)c1cc(F)ccc1-2 recorded_metric="viability decrease (inhibition)" result_number=17.1
compound=CC1=C(C(=O)O)N2C(=O)[C@@H](NC(=O)[C@H](N)c3ccc(O)cc3)[C@H]2SC1 recorded_metric="viability decrease (inhibition)" result_number=7.8
compound=NC(=O)c1ncn([C@@H]2O[C@H](CO)[C@@H](O)[C@H]2O)n1 recorded_metric="viability decrease (inhibition)" result_number=-29.6
compound="CCCCC1C(=O)N(c2ccccc2)N(c2ccc(O)cc2)C1=O (stereo not drawn)" recorded_metric="viability decrease (inhibition)" result_number=124
compound="C1CCC(C(CC2CCCCN2)C2CCCCC2)CC1 (stereo not drawn)" recorded_metric="viability decrease (inhibition)" result_number=120
compound=CCC(=O)O[C@]1(C(=O)SCF)[C@H](C)C[C@H]2[C@@H]3C[C@H](F)C4=CC(=O)C=C[C@]4(C)[C@@]3(F)[C@@H](O)C[C@@]21C recorded_metric="viability decrease (inhibition)" result_number=39.6
compound=NS(=O)(=O)c1cc2c(cc1Cl)NC(CSCc1ccccc1)=NS2(=O)=O recorded_metric="viability decrease (inhibition)" result_number=0.9
compound=CCCCC1C(=O)N(c2ccccc2)N(c2ccccc2)C1=O recorded_metric="viability decrease (inhibition)" result_number=13.6
compound=O=C1c2ccccc2C(=O)C1c1ccccc1 recorded_metric="viability decrease (inhibition)" result_number=1.3
